So I've got a bunch of molecules here, and I need their MIC values.
- System: HIV
- assay: Testing preparations against HIV in cell culture (infected human donor lymphocytes)
- Format: cell-based
- conditions-used: Human immunodeficiency virus 1, 72 h; lowest concentration without giant cells; HIV-infected lymphocytes, 3 days, 37° C.
One number for each entry, in µg/mL.

CCCC=C1c2ccccc2NC(=S)C12CCCC2
0.008
CCC1(CC)C(=S)Nc2ccccc2C1=CCC(C)C
0.02
CCC=C1c2cc(OC)ccc2NC(=O)C1(C)C
0.2
CCCC=C1c2cc(OCC)ccc2NC(=O)C1(C)C
0.1

Consider the additional molecule presented here.
So, CCCCCC=C1c2ccccc2NC(=S)C12CCC2 ? Its MIC was 0.2

###

- target-system: HIV reverse transcriptase (Human immunodeficiency virus type 1 group M subtype B)
- Construct: purchased HT-Biotechnology LTD, Cambridge, UK; host or cells: E. coli
- assay: Inhibition of HIV reverse transcriptase, scintillation proximity assay (SPA)
- Type: biochemical
- conditions-used: RT-SPA, 60 min, 37° C.; read-out: Reverse Transcriptase Asaay IC-50 (converted)
Please provide measured IC50 for the entries that follow.

These solved cases illustrate the format of a correct answer.
COc1ccc2c(c1)C(=CCC(C)C)C(C)(C)C(=O)N2
69.5 nM
CCCC=C1c2ccccc2NC(=S)C1(C)C
23.6 nM
CCC/C=C1\c2cc(Cl)ccc2NC(=S)C1(C)C
< 3.57 nM
CC(C)=C1c2cc(Cl)ccc2NC(=S)C1(C)C
117 nM

Okay, next one:
Field IC50 (entry CCOC(=O)/C=C1\c2cc(Cl)ccc2NC(=S)C1(C)C ) reads 123 nM

###

- target-system: HIV reverse transcriptase (Human immunodeficiency virus type 1 group M subtype B, UniProt P04585)
- Construct: purchased HT-Biotechnology LTD, Cambridge, UK; host or cells: E. coli
- assay: Inhibition of HIV reverse transcriptase, scintillation proximity assay (SPA)
- Type: biochemical
- conditions-used: RT-SPA, 60 min, 37° C.; read-out: Reverse Transcriptase Asaay IC-50 (converted)
Could you please report measured log10(IC50) for the items listed next?
Quick note: numbers are log10 of IC50, with nM as the unit.

Known results for compounds:
CC/C=C1\c2cc(Cl)ccc2NC(=S)C1(C)C [Compound 71]
0.58
CCC=C1c2cc(OC)ccc2NC(=S)C1(C)C [Compound 45]
0.96
COc1ccc2c(c1)C(=CCC(C)C)C(C)(C)C(=S)N2 [Compound 69]
1.24
CC(C)CC=C1c2ccccc2NC(=O)C12CCCC2 [Compound 67]
1.95
CCCCCC=C1c2cc(OC)ccc2NC(=S)C1(C)C [Compound 64]
2.04
CCC=C1c2cc(Cl)ccc2NC(=S)C1(C)C [Compound 4]
0.88
C=CC=C1c2cc(Cl)ccc2NC(=S)C1(C)C [Compound 14]
1.18
CCC=C1c2cc(Cl)ccc2NC(=O)C1(C)C [Compound 3]
2.03

Count: 3. Required value per item: log10(IC50).
1. CCCC=C1c2ccccc2NC(=S)C1(CC)CC [Compound 49]
2. CCCC=C1c2ccccc2NC(=O)C12CCCC2 [Compound 6]
3. CCCC=C1c2ccccc2NC(=O)C12CCC2 [Compound 5]

// result
1. 1.41
2. 2.05
3. 2.68

###

- Test system: HIV
- assay: Testing preparations against HIV in cell culture (infected human donor lymphocytes)
- Format: cell-based
- conditions-used: Human immunodeficiency virus 1, 72 h; lowest concentration without giant cells; HIV-infected lymphocytes, 3 days, 37° C.
- Experimental: Testing preparations against HIV in cell culture Description of the method The complete medium additionally contains 20% foetal calf serum and 40 IU/ml recombinant interleukin 2. […] Lymphocyte cultures having a cell count of 5×10^5 cells/ml were infected by adding a 1/50 volume of the supernatant from lymphocyte cultures infected with HIV. The titer of these culture supernatants was determined, by end point dilution, to be 1-5×10^6 infectious units/ml. […]
For each of the molecules below, state its MIC.
Answers are plain numbers, in ng/mL.

CCCC=C1c2ccccc2NC(=S)C1(C)C
8

Okay, next one:
Entry COc1ccc2c(c1)C(=CC(C)C)C(C)(C)C(=O)N2 , MIC reported as 200

###

Assign MIC to each entry below.
- Test system: HIV
- assay: Testing preparations against HIV in cell culture (infected human donor lymphocytes)
- Format: cell-based
- conditions-used: Human immunodeficiency virus 1, 72 h; lowest concentration without giant cells; HIV-infected lymphocytes, 3 days, 37° C.

CCC=C1c2cc(Cl)ccc2NC(=O)C12CCCC2 [Compound 77]
0.2 µg/mL
CC(C)C=C1c2cc(Cl)ccc2NC(=O)C1(C)C [Compound 17]
< 0.02 µg/mL
COc1ccc2c(c1)C(=CC(C)C)C(C)(C)C(=S)N2 [Compound 61]
0.02 µg/mL

Count: 3. Required value per item: MIC.
1. CCOc1ccc2c(c1)C(=CCC(C)C)C(C)(C)C(=O)N2 [Compound 58]
2. CC=C1c2ccccc2NC(=S)C12CCCC2 [Compound 38]
3. COc1ccc2c(c1)C(=C1CCCC1)C(C)(C)C(=O)N2 [Compound 138]

// result
["< 0.1 µg/mL", "< 0.2 µg/mL", "> 0.2 µg/mL"]

###

- Test system: HIV
- assay: Testing preparations against HIV in cell culture (infected human donor lymphocytes)
- Format: cell-based
- conditions-used: Human immunodeficiency virus 1, 72 h; lowest concentration without giant cells; HIV-infected lymphocytes, 3 days, 37° C.
measured-quantity: MIC

# example entries with known answers
CCC=C1c2ccccc2NC(=S)C1(CC)CC
0.02 mg/L
CCC/C=C1/c2cc(Cl)ccc2NC(=O)C1(C)C
0.04 mg/L
COc1ccc2c(c1)C(=CCC(C)C)C(C)(C)C(=S)N2
< 0.02 mg/L

// below: MIC requested for another molecule
The observed MIC for CCCC=C1c2ccccc2NC(=O)C12CCC2 when tested with HIV stands at 0.2 mg/L

###

- target-system: HIV reverse transcriptase (Human immunodeficiency virus type 1 group M subtype B)
- Construct: purchased HT-Biotechnology LTD, Cambridge, UK; host or cells: E. coli
- assay: Inhibition of HIV reverse transcriptase, scintillation proximity assay (SPA)
- Format: biochemical
- conditions-used: RT-SPA, 60 min, 37° C.; molar value in parentheses; read-out: Reverse Transcriptase Asaay IC-50 (converted)
measured-quantity: IC50 (µM)
Answers are plain numbers, in µM.

Examples from the recorded data:
CCC=C1c2cc(OC)ccc2NC(=S)C1(C)C [Compound 45]
0.009
CCCC=C1c2ccccc2NC(=S)C12CCCC2 [Compound 8]
0.016
CCC=C1c2cc(Cl)ccc2NC(=S)C1(C)C [Compound 4]
0.008
CCCC=C1c2ccccc2NC(=O)C12CCC2 [Compound 5]
0.479
CCCC=C1c2cc(Cl)ccc2NC(=NO)C1(C)C [Compound 60]
0.012
CCCC=C1c2ccccc2NC(=O)C1(CC)CC [Compound 48]
0.054
CCC1(CC)C(=O)Nc2ccccc2C1=CCC(C)C [Compound 52]
0.043
CC(C)C=C1c2ccccc2NC(=S)C1(C)C [Compound 24]
0.27

Go through the items and report each one's IC50.
1. CCC=C1c2ccccc2NC(=S)C1(CC)CC [Compound 51]
2. CC(C)CC=C1c2cc(Cl)ccc2NC(=S)C1(C)C [Compound 20]
3. CCCC=C1c2ccccc2NC(=O)C12CCCC2 [Compound 6]
4. CCCC=C1c2cc(OC)ccc2NC(=S)C1(C)C [Compound 42]
5. COc1ccc2c(c1)C(=CCC(C)C)C(C)(C)C(=O)N2 [Compound 66]
6. CCCC=C1c2ccccc2NC(=S)C1(C)C [Compound 28]

// result
0.023
0.022
0.113
0.009
0.07
0.024

For every item below, please supply its IC50.
1. CC(C)CC=C1c2ccccc2NC(=S)C12CCCC2 [Compound 70]
2. CCCCCC=C1c2cc(OC)ccc2NC(=S)C1(C)C [Compound 64]
3. CCC1(CC)C(=S)Nc2ccccc2C1=CCC(C)C [Compound 53]
4. C=CC=C1c2cc(Cl)ccc2NC(=S)C1(C)C [Compound 14]
5. CC(C)C=C1c2cc(Cl)ccc2NC(=S)C1(C)C [Compound 18]

// result
1. 0.021
2. 0.109
3. 0.044
4. 0.018
5. 0.055

###

- target-system: HIV reverse transcriptase (Human immunodeficiency virus type 1 group M subtype B, UniProt P04585)
- Construct: purchased HT-Biotechnology LTD, Cambridge, UK; host or cells: E. coli
- assay: Inhibition of HIV reverse transcriptase, scintillation proximity assay (SPA)
- Assay type: biochemical
- conditions-used: RT-SPA, 60 min, 37° C.; molar value in parentheses; read-out: Reverse Transcriptase Asaay IC-50 (converted)
Response field label: string, one of y (IC50 strictly below 20 nM) or n.

Recorded results for 2 compounds are shown here.
COc1ccc2c(c1)C(=CCC(C)C)C(C)(C)C(=S)N2 [Compound 69]
y
CC/C=C1\c2cc(Cl)ccc2NC(=S)C1(C)C [Compound 71]
y

// query Does this compound meet the criterion IC50 < 20 nM? CCC/C=C1\c2cc(Cl)ccc2NC(=O)C1(C)C [Compound 73]
// result n

// query State whether 20 nM exceeds IC50 recorded for CC(C)CC=C1c2cc(Cl)ccc2NC(=O)C1(C)C [Compound 19] .
// result n

// query Is IC50 of CC(C)CC=C1c2ccccc2NC(=O)C12CCCC2 [Compound 67] strictly below 20 nM?
// result n

// query Bench note: check whether CCCC=C1c2ccccc2NC(=S)C1(CC)CC [Compound 49] shows IC50 below 20 nM
// result n

// query Lab note: confirm whether the reported IC50 for this compound is below 20 nM, equality not counting. compound: CC(C)=C1c2cc(Cl)ccc2NC(=S)C1(C)C [Compound 10]
// result n

// query Below 20 nM on IC50? Entry CCCC=C1c2ccccc2NC(=S)C12CCC2 [Compound 7]
// result y

// query Please determine if COc1ccc2c(c1)C(=CC(C)C)C(C)(C)C(=S)N2 [Compound 61] is below 20 nM in terms of IC50.
// result n
